Biological target: c-Met protein in S114 cells (Homo sapiens (Human), UniProt P08581)
Sequence (P08581 25-1390): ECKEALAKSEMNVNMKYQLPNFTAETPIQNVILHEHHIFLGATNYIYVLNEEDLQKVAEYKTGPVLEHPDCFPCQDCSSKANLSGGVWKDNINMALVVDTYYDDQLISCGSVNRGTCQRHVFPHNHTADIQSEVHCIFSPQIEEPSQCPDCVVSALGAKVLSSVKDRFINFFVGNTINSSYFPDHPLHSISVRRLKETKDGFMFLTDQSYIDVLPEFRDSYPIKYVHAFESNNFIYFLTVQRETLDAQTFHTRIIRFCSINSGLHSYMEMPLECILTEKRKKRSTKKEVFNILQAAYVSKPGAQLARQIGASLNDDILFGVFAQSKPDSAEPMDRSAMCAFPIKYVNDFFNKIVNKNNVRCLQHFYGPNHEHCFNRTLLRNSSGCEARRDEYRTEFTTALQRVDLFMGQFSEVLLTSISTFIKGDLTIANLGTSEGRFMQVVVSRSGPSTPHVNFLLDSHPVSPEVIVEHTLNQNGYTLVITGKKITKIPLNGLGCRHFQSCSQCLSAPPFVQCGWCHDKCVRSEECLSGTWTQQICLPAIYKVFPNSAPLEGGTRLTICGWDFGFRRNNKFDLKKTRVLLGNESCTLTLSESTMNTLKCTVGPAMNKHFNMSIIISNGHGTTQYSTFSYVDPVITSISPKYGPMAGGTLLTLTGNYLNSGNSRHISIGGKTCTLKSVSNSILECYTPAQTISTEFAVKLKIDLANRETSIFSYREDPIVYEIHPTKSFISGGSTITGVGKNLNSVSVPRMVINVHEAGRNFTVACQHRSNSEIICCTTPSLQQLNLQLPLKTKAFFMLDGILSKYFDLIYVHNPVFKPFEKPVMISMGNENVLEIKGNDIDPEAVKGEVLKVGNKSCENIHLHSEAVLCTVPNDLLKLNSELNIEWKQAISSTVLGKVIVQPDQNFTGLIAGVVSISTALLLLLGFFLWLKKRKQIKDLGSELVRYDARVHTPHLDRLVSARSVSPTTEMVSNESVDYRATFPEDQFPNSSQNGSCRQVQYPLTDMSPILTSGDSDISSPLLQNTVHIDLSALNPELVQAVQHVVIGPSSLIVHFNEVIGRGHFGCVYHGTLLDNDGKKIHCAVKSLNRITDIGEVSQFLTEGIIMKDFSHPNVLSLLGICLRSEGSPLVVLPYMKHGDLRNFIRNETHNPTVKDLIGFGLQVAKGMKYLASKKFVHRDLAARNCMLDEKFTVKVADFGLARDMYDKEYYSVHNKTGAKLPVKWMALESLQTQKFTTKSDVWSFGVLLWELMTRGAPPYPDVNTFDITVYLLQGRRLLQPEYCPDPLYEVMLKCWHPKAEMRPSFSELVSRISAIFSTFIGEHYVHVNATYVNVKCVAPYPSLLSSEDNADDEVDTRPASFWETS
Assay: S114 cell-based ELISA, phosphorylation of c-Met protein
Conditions: 30 min compound incubation, phospho-c-Met ELISA
property: pIC50
On this scale, pIC50 is minus log10 of a concentration expressed in M (mol/L).

As a guide, the following entries are already answered.
I have this compound here, Cn1cc2cc(C(F)(F)c3nnc4ccc(-c5cnn(CC6COCO6)c5)nn34)c(F)cc2n1 (centres unmarked) , and I need its recorded pIC50.
6.46

I have this compound here, `CC(C)NC(=O)c1ccc(-c2ccc3nnc(C(F)(F)c4ccc5nn(C)cc5c4F)n3n2)cc1F` , and I need its recorded pIC50.
8.59

I have this compound here, `CNC(=O)c1ccc(-c2ccc3nnc(C(F)(F)c4cc5cn(C)nc5cc4F)n3n2)cc1F` , and I need its recorded pIC50.
8.24

I have this compound here, `CNC(=O)c1cc(-c2ccc3nnc(C(F)(F)c4cc5cn(C)nc5cc4F)n3n2)ccn1` , and I need its recorded pIC50.
7.35

I have this compound here, `CNS(=O)(=O)c1ccc(-c2ccc3nnc(C(F)(F)c4cc5cn(C)nc5cc4F)n3n2)cc1F` , and I need its recorded pIC50.
6.39

***
I have this compound here, `COCCn1cc(-c2ccc3nnc(C(F)(F)c4ccc5nn(C)cc5c4F)n3n2)cn1` , and I need its recorded pIC50.
6.42

I have this compound here, `Cn1cc2cc(C(F)(F)c3nnc4ccc(-c5cncc(F)c5)nn34)c(F)cc2n1` , and I need its recorded pIC50.
6.68

I have this compound here, `CC(C)NC(=O)c1ccc(-c2ccc3nnc(C(F)(F)c4cc5cn(C)nc5cc4F)n3n2)cc1F` , and I need its recorded pIC50.
8.96
